test system: Escherichia coli TOP10; assay: shrunken log2 fold change of peptide-encoding DNA abundance (4.5 h post-induction vs induction); higher = less antimicrobial activity (less host growth inhibition); details: time post-induction: 4.5 h; library: site-saturation at positions 5, 18, 19, 20
Classify as follows. Reported shrunken log2 fold change greater than or equal to 0.06: met. Reported shrunken log2 fold change below: not met.

See these solved cases before continuing.
RRIRYRPPRLPRPRPRPFSLPRP ... not met
RRIRFRPPRLPRPRPRPVHCPRP ... not met
RRIRNRPPRLPRPRPRPEMIPRP ... not met

Assess whether reported shrunken log2 fold change for `RRIRHRPPRLPRPRPRPHDQPRP` sits at 0.06 or higher.
not met

====

test system: Escherichia coli TOP10; assay: shrunken log2 fold change of peptide-encoding DNA abundance (4.5 h post-induction vs induction); higher = less antimicrobial activity (less host growth inhibition); settings: time post-induction: 4.5 h; library: site-saturation at positions 5, 18, 19, 20
Quick reference for shrunken log2 fold change among some sequences
Note: the reply should be a number with no unit written.

Previously resolved entries follow.
RRIRGRPPRLPRPRPRPNEDPRP ... 0.468
RRIRARPPRLPRPRPRPSHMPRP ... -0.184
RRIRPRPPRLPRPRPRPWLMPRP ... -0.118
RRIRLRPPRLPRPRPRPHFGPRP ... 0.0847

# shrunken log2 fold change lookup, item `RRIRLRPPRLPRPRPRPLNQPRP`
-0.917

Reported shrunken log2 fold change, sequence `RRIRQRPPRLPRPRPRPEQAPRP` : ____
0.378

What value of shrunken log2 fold change has been reported for the following sequence? `RRIRKRPPRLPRPRPRPEVCPRP`
0.0227

Dear colleague, I am looking for the recorded shrunken log2 fold change of the following sequence: `RRIRGRPPRLPRPRPRPCCTPRP`
1.31

For the sequence `RRIRSRPPRLPRPRPRPHIQPRP` , what shrunken log2 fold change is on record?
-0.699

Tell me the measured shrunken log2 fold change of `RRIRVRPPRLPRPRPRPWYHPRP` , please.
-0.209

====

tested on: Escherichia coli TOP10; assay: shrunken log2 fold change of peptide-encoding DNA abundance (4.5 h post-induction vs induction); higher = less antimicrobial activity (less host growth inhibition); details: time post-induction: 4.5 h; library: site-saturation at positions 5, 18, 19, 20;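 note: peptides expressed intracellularly from a pBAD plasmid library in pooled LB shake-flask culture, induced with 0.3% L-arabinose, DNA abundance read by NGS, three biological replicates, DESeq2 with apeglm shrinkage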
result.type: shrunken log2 fold change
Just the number, please, no unit after it.

RRIRYRPPRLPRPRPRPYGFPRP ... -0.182
RRIRCRPPRLPRPRPRPTGDPRP ... 0.231
RRIRARPPRLPRPRPRPTEVPRP ... 0.173
RRIRGRPPRLPRPRPRPVSNPRP ... 0.568
RRIRTRPPRLPRPRPRPWAYPRP ... 0.013

Entry under review: `RRIRQRPPRLPRPRPRPGHVPRP` . Reported shrunken log2 fold change?
0.0119

Consider the sequence shown here: `RRIRQRPPRLPRPRPRPGYTPRP` What is its recorded shrunken log2 fold change?
-0.912

Recorded shrunken log2 fold change for `RRIRVRPPRLPRPRPRPKELPRP` , please?
-0.00952

Would you kindly share the measured shrunken log2 fold change for `RRIRNRPPRLPRPRPRPWNPPRP` ?
-0.0102

Query (sequence): `RRIRDRPPRLPRPRPRPLWSPRP` ; field requested: shrunken log2 fold change
-0.0446

Look up shrunken log2 fold change for this sequence: `RRIRVRPPRLPRPRPRPKERPRP`
0.0774

Please give the measured shrunken log2 fold change for this sequence: `RRIRWRPPRLPRPRPRPRCHPRP`
0.33

Which shrunken log2 fold change is reported for this sequence? `RRIRPRPPRLPRPRPRPMRSPRP`
0.478

Please report the recorded shrunken log2 fold change for `RRIRQRPPRLPRPRPRPYPSPRP` .
-0.161

Look at this sequence and give its reported shrunken log2 fold change. `RRIRQRPPRLPRPRPRPKAQPRP`
0.0112

Please report the recorded shrunken log2 fold change for `RRIRIRPPRLPRPRPRPSPQPRP` .
-0.512

Which shrunken log2 fold change is listed for `RRIRRRPPRLPRPRPRPLYKPRP` ?
-0.248

So what's the measured shrunken log2 fold change for this one? `RRIRMRPPRLPRPRPRPLDNPRP`
0.957

Entry `RRIRGRPPRLPRPRPRPWYDPRP` : reported shrunken log2 fold change = ?
-0.929
